- SYSTEM UNDER TEST: Human immunodeficiency virus type 1 protease (Human immunodeficiency virus 1)
- PROTOCOL DETAILS: Inhibitory activity against HIV1 protease at 0.5 uM
inhibition reference
READOUT TYPE: inhibition (%)

1. COc1cc(CN2C(=O)N(Cc3ccc(O)c(OC)c3)N(C(=O)CCc3ccoc3)C[C@@H](O)[C@H]2Cc2ccccc2)ccc1O    68
2. COc1cc(CN2C(=O)N(Cc3ccc(O)c(OC)c3)N(C(=O)COc3ccccc3)C[C@@H](O)[C@H]2Cc2ccccc2)ccc1O    53
3. COc1cc(CN2C(=O)N(Cc3ccc(O)c(OC)c3)N(C(=O)CCc3ccco3)C[C@@H](O)[C@H]2Cc2ccccc2)ccc1O    73
